Cited source for all entries: patent US20140087995A1

# ASSAY_TARGET: T1, human amylin receptor (human, UniProt P30988 25-474; O60896 24-148, limits assumed)
# T1 construct: whole, on cells; Calcitonin receptor plus RAMP-3 gives the amylin 3(a) receptor; membranes of Amylin 3(a)/CRE-luc cells were used; also called hAmylin-R; hAmylinR
# T1 sequence (looked up) 1: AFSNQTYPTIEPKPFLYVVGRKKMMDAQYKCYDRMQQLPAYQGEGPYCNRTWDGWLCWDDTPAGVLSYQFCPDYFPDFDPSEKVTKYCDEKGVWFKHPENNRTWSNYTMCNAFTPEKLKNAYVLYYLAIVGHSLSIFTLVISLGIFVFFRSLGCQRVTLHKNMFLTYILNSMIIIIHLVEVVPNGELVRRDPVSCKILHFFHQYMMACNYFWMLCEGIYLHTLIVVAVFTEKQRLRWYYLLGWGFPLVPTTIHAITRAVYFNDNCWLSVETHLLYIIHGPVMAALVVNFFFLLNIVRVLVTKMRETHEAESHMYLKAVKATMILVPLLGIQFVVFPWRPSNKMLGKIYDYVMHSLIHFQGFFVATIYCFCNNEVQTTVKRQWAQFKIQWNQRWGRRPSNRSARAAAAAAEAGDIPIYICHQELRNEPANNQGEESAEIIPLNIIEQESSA
# T1 sequence (looked up) 2: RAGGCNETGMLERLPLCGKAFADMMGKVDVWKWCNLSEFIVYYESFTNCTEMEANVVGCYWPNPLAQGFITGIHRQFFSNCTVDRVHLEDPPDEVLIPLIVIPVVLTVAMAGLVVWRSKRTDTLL
# ASSAY_PROTOCOL: SPA competition binding, displacement of 125I-rat amylin from membranes with human amylin 3(a) receptor (Assay V)
Numbered stars: 1 amine (or outer) side, 2 acyl side, 3 side chain; on linkers, the order of the positions; unused ones are H or OH. Bridge positions count the residues as written; N and C are the ends. Side chains are listed from the residue outwards. Ends that are not written are not given here. * marks the point of attachment. C20 diacid = O=C(O)CCCCCCCCCCCCCCCCCCC(=O)*; γGlu = O=C(O)[C@H](CCC(=O)[*:2])N[*:1]; AEEA = NCCOCCOCC(=O)O
Classify: criterion met when IC50 is strictly less than 100 pM; criterion not met when IC50 is not.

Use these answered entries as a reference point.
BINDER	CATEGORY_LABEL
{C20 diacid-γGlu}-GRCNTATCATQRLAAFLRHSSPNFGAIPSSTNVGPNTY-NH2 (disulfide 3-8, also called -1G, 1R, 14A, 17R, 21P, 27P, 34P)	criterion not met
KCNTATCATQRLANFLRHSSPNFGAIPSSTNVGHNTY (C20 diacid-gGlu on the alpha amino group of the N-terminal residue; disulfide Cys2-Cys7 and C-terminal amide as in human amylin, also called 17R, 21P, 27P, 34H) [N^α1-[(4S)-4-carboxy-4-(19-carboxynonadecanoylamino)butanoyl]-[Arg17,Pro21,Pro27,His34]-h-amylin]	criterion not met
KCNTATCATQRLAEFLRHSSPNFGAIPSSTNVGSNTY (C20 diacid-gGlu-2xOEG on the alpha amino group of the N-terminal residue; disulfide Cys2-Cys7 and C-terminal amide as in human amylin, also called 14E, 17R, 21P, 27P)	criterion not met

Hi there! Is IC50 for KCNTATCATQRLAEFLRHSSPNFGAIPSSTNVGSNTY (C20 diacid-gGlu on the alpha amino group of the N-terminal residue; disulfide Cys2-Cys7 and C-terminal amide as in human amylin, also called 14E, 17R, 21P, 27P) [N^α1-[(4S)-4-carboxy-4-(19-carboxynonadecanoylamino)butanoyl]-[Glu14,Arg17,Pro21,Pro27]-h-amylin] below 100 pM, do you know?
criterion not met

Hi there! Is IC50 for K([γGlu-C20 diacid])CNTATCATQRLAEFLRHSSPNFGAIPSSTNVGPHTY-NH2 (disulfide 2-7, also called 14E, 17R, 21P, 27P, 34P, 35H) below 100 pM, do you know?
criterion not met

Hi there! Is IC50 for K([AEEA-γGlu-C20 diacid])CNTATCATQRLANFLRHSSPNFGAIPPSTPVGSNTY-NH2 (disulfide 2-7, also called 17R, 21P, 27P, 28P, 31P) below 100 pM, do you know?
criterion met

Hi there! Is IC50 for K([γGlu-γGlu-C20 diacid])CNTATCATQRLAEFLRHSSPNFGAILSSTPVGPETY-NH2 (disulfide 2-7 (inferred), also called 14E, 17R, 21P, 31P, 34P, 35E) below 100 pM, do you know?
criterion met

Hi there! Is IC50 for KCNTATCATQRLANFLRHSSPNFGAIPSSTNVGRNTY (C20 diacid-gGlu on the alpha amino group of the N-terminal residue; disulfide Cys2-Cys7 and C-terminal amide as in human amylin, also called 17R, 21P, 27P, 34R) [N^α1-[(4S)-4-carboxy-4-(19-carboxynonadecanoylamino)butanoyl]-[Arg17,Pro21,Pro27,Arg34]-h-amylin] below 100 pM, do you know?
criterion not met
